Cited source: patent US8846684B2

- Tested on: WEEV replicon
- Assay protocol: microbe, parasite or virus in culture
- Type: cell-based, Western equine encephalitis virus
- Condition: Western equine encephalitis virus; read-out: Activity (% control LUC) 10 μM
Label 0 if activity at 10 µM falls below 70%; label 1 in every other case.

Does the reported activity at 10 µM for CN(Cc1ccccc1)C(=O)C1CCN(C(=O)c2cc3ccccc3n2Cc2ccc(Cl)cc2)CC1 fall at or above the 70% mark?
0

Does the reported activity at 10 µM for Cc1cccc(CNC(=O)C2CCN(C(=O)c3cc4ccccc4n3Cc3ccc(Cl)cc3)CC2)c1 fall at or above the 70% mark?
0

Does the reported activity at 10 µM for O=C(NCc1cccc(Cl)c1)C1CCN(C(=O)c2cc3ccccc3n2Cc2ccc(Cl)cc2)CC1 fall at or above the 70% mark?
0

Does the reported activity at 10 µM for O=C(c1cc2ccccc2n1Cc1ccc(Cl)cc1)N1CCC(C(=O)N2CCC[C@H]2CO)CC1 fall at or above the 70% mark?
1

Does the reported activity at 10 µM for COC(=O)c1cccc(NC(=O)C2CCN(C(=O)c3cc4ccccc4n3Cc3ccc(Cl)cc3)CC2)c1 fall at or above the 70% mark?
0

Does the reported activity at 10 µM for O=C(NCc1ccccc1)C1CCN(C(=O)c2cc3ccccc3n2Cc2ccc(F)cc2)CC1 fall at or above the 70% mark?
1

Does the reported activity at 10 µM for O=C(NCc1ccccc1)C1CCN(C(=O)c2cccn2Cc2ccc(Cl)cc2)CC1 fall at or above the 70% mark?
1

Does the reported activity at 10 µM for CN1CCN(C(=O)C2CCN(C(=O)c3cc4ccccc4n3Cc3ccc(Cl)cc3)CC2)CC1 fall at or above the 70% mark?
0
